The reported numbers originate from patent US20240117038A1.

- system.tested: T1, human CX3CR1 T280M (human, UniProt P49238 1-355)
- T1 construct: Transiently transfected in HEK293T cells (pcDNA3.1); also called huCX3CR1 variant T280M (Rs3732378)
- T1 sequence: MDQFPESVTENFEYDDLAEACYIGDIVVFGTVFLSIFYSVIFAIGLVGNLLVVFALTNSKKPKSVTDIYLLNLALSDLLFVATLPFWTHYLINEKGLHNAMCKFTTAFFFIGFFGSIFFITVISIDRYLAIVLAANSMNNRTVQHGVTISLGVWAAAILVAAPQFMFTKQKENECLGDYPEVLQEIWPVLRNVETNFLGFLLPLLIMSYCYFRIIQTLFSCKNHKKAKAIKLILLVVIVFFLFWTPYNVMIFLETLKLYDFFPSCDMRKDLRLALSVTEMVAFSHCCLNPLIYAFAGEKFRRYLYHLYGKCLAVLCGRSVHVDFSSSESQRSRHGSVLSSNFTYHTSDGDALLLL
- assay.info: flow cytometry on transiently transfected HEK293T cells, human CX3CR1 T280M
parameter.measured: EC50 (nM)
Numeric only. Scale: nM

Fill in EC50 for record A041600035 (VHH, Trivalent ISVD construct (two anti-CX3CR1 ISVDs, one anti-albumin ISVD), C-terminal alanine included in the entry; also called 54A12_SO (E1D)-9GS-54A12_SO-9GS-ALB23002-A) DVQLVESGGGSVQPGGSLRLSCAASGSIFSSTAMAWYRQAPGKQRDLVAVISTVGITKYADSVKGRFTISRDNAKNTVYLQMNSLRPEDTALYYCTSDARRGWDTRYWGQGTLVTVSSGGGGSGGGSEVQLVESGGGSVQPGGSLRLSCAASGSIFSSTAMAWYRQAPGKQRDLVAVISTVGITKYADSVKGRFTISRDNAKNTVYLQMNSLRPEDTALYYCTSDARRGWDTRYWGQGTLVTVSSGGGGSGGGSEVQLVESGGGVVQPGGSLRLSCAASGFTFRSFGMSWVRQAPGKGPEWVSSISGSGSDTLYADSVKGRFTISRDNSKNTLYLQMNSLRPEDTALYYCTIGGSLSRSSQGTLVTVSSA
0.2
